Listed below: TD50 values for each entry.
Tested on: rodent lifetime carcinogenesis bioassay, tumor incidence TD50
Experiment: carcinogenic potency in animals, long-term in vivo studies, CPDB compilation (AID 1745844)
Conditions: mouse; strain B6C3F1; females; oral dosing; site: liver; lesion: hepatoma; dosed 76 weeks; study length 76 weeks
Calls of active or inactive are those of the source. How the calls were made is not given here.
Measurement type: TD50

[[record]]
compound = "CC(C)Oc1ccc(Nc2ccccc2)cc1"
measurement_type = "TD50"
measurement = "2650 mg/kg/day (inactive)"

[[record]]
compound = "CCCCCCCCCCCCN=C(N)N"
measurement_type = "TD50"
measurement = "54.7 mg/kg/day (inactive)"

[[record]]
compound = "c1ccc(Nc2ccc3ccccc3c2)cc1"
measurement_type = "TD50"
measurement = "1080 mg/kg/day"

[[record]]
compound = "CCN(CC)C(=S)SSC(=S)N(CC)CC"
measurement_type = "TD50"
measurement = "283 mg/kg/day"

[[record]]
compound = "CC(C)OC(=O)COc1ccc(Cl)cc1Cl"
measurement_type = "TD50"
measurement = "100 mg/kg/day (inactive)"

[[record]]
compound = "c1ccc2sc(SN3CCOCC3)nc2c1"
measurement_type = "TD50"
measurement = "1230 mg/kg/day (inactive)"

[[record]]
compound = "NC(=O)Cc1cccc2ccccc12"
measurement_type = "TD50"
measurement = "956 mg/kg/day (inactive)"

[[record]]
compound = "O=S(=O)(Oc1ccc(Cl)cc1)c1ccc(Cl)cc1"
measurement_type = "TD50"
measurement = "931 mg/kg/day (inactive)"

[[record]]
compound = "CC=CC(=O)Oc1c(C(C)CCCCCC)cc([N+](=O)[O-])cc1[N+](=O)[O-] (stereo not given)"
measurement_type = "TD50"
measurement = "2.5 mg/kg/day (inactive)"

[[record]]
compound = "CC(=O)[O][Sn]([c]1ccccc1)([c]1ccccc1)[c]1ccccc1"
measurement_type = "TD50"
measurement = "909 mg/kg/day (inactive)"


Where do these numbers come from? They come from PubChem BioAssay AID1745844.
